Each recorded value in this set is attributed to ChEMBL document CHEMBL1764980.

The entries below come with measured UI values attached.
System: Rattus norvegicus
Assay: Gastrointestinal toxicity in Wistar rat assessed as ulcerogenic index at 100 mg/kg, po administered as single dose
Format: organism-based
Design: dose 100 mg/kg, route oral
Settings: in vivo
Recorded metric: UI

# Structure smiles string, Target of assay, Numeric readout
records = [
    ("COc1ccc2c(c1)c(CC(=O)OCCOC(C)=O)c(C)n2C(=O)c1ccc(Cl)cc1", "Rattus norvegicus", 0),
    ("COc1ccc2c(c1)c(CC(=O)O)c(C)n2C(=O)c1ccc(Cl)cc1", "Rattus norvegicus", 47),
    ("COc1ccc2c(c1)c(CC(=O)OCOC(=O)C(C)(C)C)c(C)n2C(=O)c1ccc(Cl)cc1", "Rattus norvegicus", 19),
    ("COc1ccc2c(c1)c(CC(=O)OCOC(=O)OC(C)C)c(C)n2C(=O)c1ccc(Cl)cc1", "Rattus norvegicus", 62),
    ("COc1ccc2c(c1)c(CC(=O)OCc1oc(=O)oc1C)c(C)n2C(=O)c1ccc(Cl)cc1", "Rattus norvegicus", 0),
]

* * *

Test: Aqueous solubility of the compound in 0.2 M hydrochloric acid buffer at pH 1 after 4 hrs by HPLC analysis
Format: physicochemical
Recorded metric: solubility at 4 h

# Structure smiles string, Result
measured = [
    ("COc1ccc2c(c1)c(CC(=O)OCOC(=O)OC(C)C)c(C)n2C(=O)c1ccc(Cl)cc1", "< 0.119 µg/mL"),
    ("COc1ccc2c(c1)c(CC(=O)OCOC(=O)C(C)(C)C)c(C)n2C(=O)c1ccc(Cl)cc1", "< 0.084 µg/mL"),
    ("COc1ccc2c(c1)c(CC(=O)OCCOC(C)=O)c(C)n2C(=O)c1ccc(Cl)cc1", "< 0.111 µg/mL"),
    ("COc1ccc2c(c1)c(CC(=O)OCc1oc(=O)oc1C)c(C)n2C(=O)c1ccc(Cl)cc1", "< 0.0638 µg/mL"),
]

* * *

Assay: Partition coefficient, log P of the compound in n-octanol-phosphate buffer at pH 7.4 by HPLC analysis
Type: physicochemical
# maps each entry to its logD

# Structure smiles string, logD
measured = [
    ("COc1ccc2c(c1)c(CC(=O)OCOC(=O)OC(C)C)c(C)n2C(=O)c1ccc(Cl)cc1", 5),
    ("COc1ccc2c(c1)c(CC(=O)OCc1oc(=O)oc1C)c(C)n2C(=O)c1ccc(Cl)cc1", 2.9),
    ("COc1ccc2c(c1)c(CC(=O)OCOC(=O)C(C)(C)C)c(C)n2C(=O)c1ccc(Cl)cc1", 4.7),
    ("COc1ccc2c(c1)c(CC(=O)OCCOC(C)=O)c(C)n2C(=O)c1ccc(Cl)cc1", 3.5),
]

* * *

Assay: Metabolic stability in rat liver microsomes assessed as compound remaining at 5 mM after 30 mins by HPLC analysis
Format: ADME, Microsome
Conditions: read-out: Stability
Listed next: entries and their corresponding remaining at 0.5 h.
Recorded metric: remaining at 0.5 h (%)

# Compound, Recorded metric, Numeric readout
data = [
    ("COc1ccc2c(c1)c(CC(=O)O)c(C)n2C(=O)c1ccc(Cl)cc1 [INDOMETHACIN]", "remaining at 0.5 h", 90.3),
    ("COc1ccc2c(c1)c(CC(=O)OCCOC(C)=O)c(C)n2C(=O)c1ccc(Cl)cc1", "remaining at 0.5 h", 1.14),
    ("COc1ccc2c(c1)c(CC(=O)OCOC(=O)C(C)(C)C)c(C)n2C(=O)c1ccc(Cl)cc1", "remaining at 0.5 h", 0),
]
